src = PubChem BioAssay (NCI)

TGI: recorded values
# Tested on: TK-10 renal
# assayComment: NCI tumour cell line growth inhibition, 48 h
recordedMetric: TGI

| compound | reportedResult |
| --- | --- |
| COc1ccc2c(c1)c1nc3cc(C)c(C)cc3nc1n2CCN(C)C | 3.58 µM |
| O=C1C2=C(CCCCC2)C2CCCCC12O (centres undefined) | > 100 µM |
| O=c1oc2c/c(=C\c3ccccc3)c(=O)c3cccc1c3-2 | > 100 µM |
| COC(=O)[C@@]12OC[C@]34C([C@@H](O)C1O)[C@@]1(C)CC(=O)C(O)=C(C)C1C[C@H]3OC(=O)[C@H](OC(=O)/C=C(/c1ccccc1)C(F)(F)F)[C@H]42 (some centres undefined) | > 25 µM |
| Clc1ccc2nc(CC3CCCC3)[nH]c2c1 | 70.2 µM |
| S=c1nc2sc3c(c2c(Nc2ccc(Br)cc2)[nH]1)CCN(N1CCc2c(sc4nc(=S)[nH]c(Nc5ccc(Br)cc5)c24)C1)C3 | > 50 µM |
| CCCCCCCCCCCCCCCCCCOc1ccc(/C=C/C2=[N+](CCCl)CCO2)cc1 | > 100 µM |
| O=C1NC(=O)C(c2ccc(Cl)cc2)=C1Nc1ccc(Cl)c(C(=O)O)c1 | > 25 µM |
| O=C(NCCCCCCNC(=O)n1cc(F)c(=O)[nH]c1=O)NCCCOCCOCCOCCOCCOCCOCCOCCOCCOCCOCCOCCOCCOCCOCCOCCOCCOCCOCCOCCOCCOCCCNC(=O)C(O)C(O)C(OC1OC(CO)C(O)C(O)C1O)C(O)CO (centres undefined) | > 100 µM |
| CCC(=O)C(C)C(=O)C(=O)C(=O)OC (centres undefined) | > 100 µM |
| O=S(=O)(O)c1cc(Nc2ccnc3ccccc23)c2c(S(=O)(=O)O)cc(S(=O)(=O)O)cc2c1 | > 100 µM |
| COc1ccc(-c2nnc(-c3c(C)n(C)n(-c4ccccc4)c3=O)o2)cc1 | > 100 µM |
| CC(C)[NH-].CC(C)[NH-].O.O.[Cl][Pt+2][Cl] | 467 µM |
| NC(=O)C(=Cc1ccc(CP(=O)(O)O)cc1)C(N)=O | > 100 µM |
| C[C@]1(C(=O)O)N[C@H](C(=O)O)CS1 | > 1000 µM |
| COc1cccc2c1-c1c(OC)cccc1SS2 | 51.1 µM |
| Cn1cc(-c2nc(-c3c[nH]c4ccncc34)cs2)c2cc(F)ccc21 | 3.69 µM |
| CCCCCCCC(=O)OCC1OC(n2cc(F)c(=O)[nH]c2=O)C(NC(=O)OCc2ccccc2)C(O)C1O (centres undefined) | > 100 µM |
| COc1cc(C=O)c(-c2cc3c(cc2C2(C)OCCS2)OCO3)c(OC)c1OC (centres undefined) | > 205 µM |

----------
# Tested on: HT29 colon
# assayComment: NCI tumour cell line growth inhibition, 48 h
Items are presented alongside their recorded GI50.

| compound | targetEntity | GI50 |
| --- | --- | --- |
| CC(C)[NH-].CC(C)[NH-].O.O.[Cl][Pt+2][Cl] | HT29 colon | 12700 nM |
| CCN(CC)CCCC(C)Nc1c2ccc(Cl)cc2nc2cc(OC)c(OC)cc12 (stereo not given) | HT29 colon | 1540 nM |
| OC(C1CO1)C(O)C1CO1 (stereo not given) | HT29 colon | 97700 nM |
| CSc1n(Cc2ccc3ccccc3c2)c(C)c[n+]1Cc1ccc2ccccc2c1 | HT29 colon | 431 nM |
| Cn1cc(-c2nc(-c3c[nH]c4ccncc34)cs2)c2cc(F)ccc21 | HT29 colon | 1440 nM |
| O=CC(Br)C(Br)c1ccccc1 (stereo not given) | HT29 colon | 1710 nM |
| COc1ccc2c(c1)CCc1[nH]nc(-c3cc(OC)c(OC)c(OC)c3)c1-2 | HT29 colon | < 10 nM |
| COc1ccc(SC2c3ccc(C)cc3Oc3nc(N)c(C#N)c(N)c32)cc1 (stereo not given) | HT29 colon | 2310 nM |
| COc1ccc2nc3cc([N+](=O)[O-])ccc3c(NCCCN(CCO)CCO)c2c1 | HT29 colon | 2030 nM |
| c1ccc(Nn2c(CCCCCCCCc3nnc(COc4ccccc4)n3Nc3ccccc3)nnc2COc2ccccc2)cc1 | HT29 colon | 41900 nM |
